# Target desc: Glucose transporter (Leishmania mexicana)
# Experimental protocol: ST_JUDE_LEISH: Cytotoxicity at 2uM final concentration against transgenic Leishmania Mexicana promastigotes LmGT2 that are glucose transport deficient and complemented with the L. Mexicana glucose transporter 2. Activity is measured by DNA content using SYBR green in vitro
# Assay type: functional
Observable: inhibition

Compound | Result
Clc1ccc(CNc2nc(NCCc3c[nH]cn3)nc(Nc3ccc4c(c3)OCO4)n2)cc1 | 3.66%
CC(C)N1CCN(CCCCNc2c3ccccc3nc3ccccc23)CC1 | 22.3%
COc1ccc(C=Cc2ccc(-c3c(C)[nH]c(C)c(Cl)c3=O)cc2)cc1OC | 0.92%
O=C(Nc1ccc(OC2CCN(Cc3ccc(F)cc3)C2)cc1)c1cccs1 (stereo not given) | -0.11%
Cc1[nH]c(C)c(-c2ccc(-c3ccccc3F)nc2)c(=O)c1Br | 1.41%
CC(C)c1sc(N2CCN(C)CC2)nc1C(=O)NCCc1cccc(Cl)c1 | 3.93%
CCC[C@@H]([C@@H](CC(C)C)C(=O)N[C@@H](CCCCNC(=O)OCc1ccccc1)C(=O)Nc1ncccn1)N(O)C=O | 17.1%
Cc1c(-c2cccc(C(C)(C)NCCCN3CCCCC3)c2)cnc(N)c1C | 0.62%
CCCCCCCN1CC[C@@H](CCC(O)c2ccnc3ccc(OC)cc23)[C@@H](CC)C1 (stereo not given in full) | 0.73%
CCOC(=O)c1ccc2[nH]c(-c3ccc(C(=O)NC4CCN(Cc5ccccc5)CC4)s3)nc2c1 | 0.16%
